// reported pIC50 for each item listed
- Assayed Target: Recombinant NAMPT protein (Homo sapiens)
- Sequence (P43490 whole entry): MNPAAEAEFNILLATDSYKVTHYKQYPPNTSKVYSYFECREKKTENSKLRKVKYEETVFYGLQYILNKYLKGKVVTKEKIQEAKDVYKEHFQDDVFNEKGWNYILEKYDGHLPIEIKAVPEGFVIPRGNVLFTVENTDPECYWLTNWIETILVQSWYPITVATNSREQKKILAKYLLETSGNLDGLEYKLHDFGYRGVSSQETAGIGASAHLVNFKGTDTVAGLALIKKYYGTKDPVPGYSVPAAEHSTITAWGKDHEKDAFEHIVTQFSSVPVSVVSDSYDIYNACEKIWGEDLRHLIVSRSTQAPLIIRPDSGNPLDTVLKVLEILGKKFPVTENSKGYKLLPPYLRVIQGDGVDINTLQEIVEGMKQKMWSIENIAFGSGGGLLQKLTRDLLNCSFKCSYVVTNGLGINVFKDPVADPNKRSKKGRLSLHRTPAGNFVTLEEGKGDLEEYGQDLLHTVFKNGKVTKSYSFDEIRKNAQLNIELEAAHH
- Measurement Description: NAMPT enzyme inhibition assay (BPS Bioscience NAMPT Inhibitor Screening Assay Kit)
- Reported Conditions: 30 min pre-incubation, 2 h at 30° C., fluorescence
pIC50: −log10 of the molar value.

In [3]: df
Out[3]:
                                   molecule                            assayed_target  data_value
0  Nc1cccc(C(=O)N2CCN(c3ccc(NC(=O)NCCc4cccnc4)cc3C#Cc3ccc(F)cc3)CC2)c1  Recombinant NAMPT protein (Homo sapiens)      > 6.30
1  O=C(NCCc1cccnc1)Nc1ccc(-c2ccncc2)c(C#Cc2ccc(C(=O)NCCN3CCC4(CCNC4)CC3)cc2)c1  Recombinant NAMPT protein (Homo sapiens)      > 6.30
2  CC(C(=O)NC1CCCCC1)c1ccc(NC(=O)NCCc2cccnc2)cc1C#Cc1ccc(C(=O)NCCN2CCCCC2)cc1 (stereo not drawn)  Recombinant NAMPT protein (Homo sapiens)      > 6.30
3  Cn1ccc(CS(=O)(=O)c2ccc(NC(=O)NCCc3cccnc3)cc2C#Cc2ccc(F)cc2)n1  Recombinant NAMPT protein (Homo sapiens)      > 6.30
4  O=C(NCCc1cccnc1)Nc1ccc(NC(=O)c2ccc(F)cc2)c(C#Cc2ccc(F)cc2)c1  Recombinant NAMPT protein (Homo sapiens)      > 6.30

We now examine a further molecule.
(Q) Output pIC50 of NC1CCCN(c2ccc(NC(=O)NCCc3cccnc3)cc2C#Cc2ccc(C(=O)NCCN3CCCCC3)cc2)C1 (stereo not drawn)
(A) 6.00 to 6.30

Source listed as patent US20260250262A1.
